B1: FEM1B (parent)
chain: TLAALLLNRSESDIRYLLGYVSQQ

# Variants of: B1
# experimentSummary: protein stability index of a GFP-peptide fusion (GPS, HEK-293T) (PSI 1-6); higher = more stable;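 note: lentivirally expressed fusions sorted by FACS into six bins by GFP to DsRed ratio, PSI derived from sequencing read proportions per bin multiplied by bin number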
# testContext: c terminus: a fixed tail appended
Where protein stability index equals or exceeds 2, the correct label is true (1); where it does not, the label is false (0).

hey, is protein stability index for this one >= 2? TLAALHLNRSESDIRYLLGYVSQQ [L6H] false (0)

hey, is protein stability index for this one >= 2? TLAALLLNRSERDIRYLLGYVSQQ [S12R] true (1)

hey, is protein stability index for this one >= 2? TLAALELNRSESDIRYLLGYVSQQ [L6E] false (0)

hey, is protein stability index for this one >= 2? KLAALLLNRSESDIRYLLGYVSQQ [T1K] true (1)

hey, is protein stability index for this one >= 2? TLAALLLNRSESDIRYLLIYVSQQ [G19I] true (1)

hey, is protein stability index for this one >= 2? TLHALLLNRSESDIRYLLGYVSQQ [A3H] true (1)

hey, is protein stability index for this one >= 2? TLAALLLNRSISDIRYLLGYVSQQ [E11I] true (1)

hey, is protein stability index for this one >= 2? TLAALLLNRSESDIRWLLGYVSQQ [Y16W] true (1)

hey, is protein stability index for this one >= 2? TLAALLLNRSMSDIRYLLGYVSQQ [E11M] true (1)

hey, is protein stability index for this one >= 2? TLAALLLNRSESDIRHLLGYVSQQ [Y16H] false (0)

hey, is protein stability index for this one >= 2? TLAALLLNRIESDIRYLLGYVSQQ [S10I] true (1)

hey, is protein stability index for this one >= 2? TLAALLLNRSESDIRYLLGKVSQQ [Y20K] true (1)

hey, is protein stability index for this one >= 2? TLAADLLNRSESDIRYLLGYVSQQ [L5D] true (1)

hey, is protein stability index for this one >= 2? TLAALTLNRSESDIRYLLGYVSQQ [L6T] false (0)

hey, is protein stability index for this one >= 2? DLAALLLNRSESDIRYLLGYVSQQ [T1D] false (0)

hey, is protein stability index for this one >= 2? TLAALLLNRVESDIRYLLGYVSQQ [S10V] false (0)

hey, is protein stability index for this one >= 2? TLAALLLNRSESDIRYNLGYVSQQ [L17N] true (1)

hey, is protein stability index for this one >= 2? TLNALLLNRSESDIRYLLGYVSQQ [A3N] false (0)

hey, is protein stability index for this one >= 2? TLACLLLNRSESDIRYLLGYVSQQ [A4C] true (1)

hey, is protein stability index for this one >= 2? TLAALLLNRSESDIRYLLGYTSQQ [V21T] false (0)

hey, is protein stability index for this one >= 2? TLAALLLNRSESNIRYLLGYVSQQ [D13N] true (1)

hey, is protein stability index for this one >= 2? TLAALLLNRSESDIRYLVGYVSQQ [L18V] false (0)

hey, is protein stability index for this one >= 2? TLAALLLNRSESDIRYLLGYVSLQ [Q23L] false (0)

hey, is protein stability index for this one >= 2? TLAALLLNRSESDIQYLLGYVSQQ [R15Q] false (0)

hey, is protein stability index for this one >= 2? TLAALLLNRSESDIRYLEGYVSQQ [L18E] false (0)

hey, is protein stability index for this one >= 2? TLAALLLNRSESDIRYLLGYPSQQ [V21P] true (1)
